Origin of measurements: patent US20120232062A1

System: HCV genotype 1b
Experiment: HCV 1b replicon luciferase assay
Format: cell-based
Conditions: Hepatitis C virus, Huh-7, 48 h, Table 1; Huh7 HCV 1b replicon, luciferase reporter, 48 hours; read-out: 1b EC50
pEC50: −log10 of the molar value.
pEC50 for assorted compounds
READOUT: pEC50

O=C(NC1CCNCC1)c1nn(CCc2ccc(Cl)cc2)c2nc(N3CCCCCC3)ccc12 ... 5.43
CC(C1CC1)N1CCC(NC(=O)c2nn(C)c3nc(N4CCCCCCC4)ccc23)CC1 (stereo not shown) ... 6.01
Cn1nc(-c2cnc(C(=O)NCC3CCCNC3)s2)c2ccc(N3CCCCCC3)nc21 (stereo not shown) ... 6.00
O=C(NCC1CCCNC1)c1nn(Cc2ccc(Cl)cc2)c2nc(N3CCCCCC3)ccc12 (stereo not shown) ... 5.60
Cn1nc(-c2nnc(C3CCN(CCN4CCCCC4)C3)o2)c2ccc(N3CCCCCCC3)nc21 (stereo not shown) ... 5.32
Cn1nc(CCCN2CC[C@H](O)C2)c2ccc(N3CCCCCCC3)nc21 ... 5.49

----------
Test system: HCV genotype 1b
Test: HCV 1b replicon luciferase assay
Type: cell-based
Conditions: Hepatitis C virus, Huh-7, 48 h, Table 1; Huh7 HCV 1b replicon, luciferase reporter, 48 hours; read-out: 1b EC50
READOUT: EC50 (µM)

Cn1nc(C(=O)Nc2cc[nH]n2)c2ccc(N3CCCCCC3)nc21 [compound 827] ... 3.2
CN(c1ccc2c(C(=O)NC3CCNCC3)nn(C)c2n1)C1CCCCCCC1 [compound 893] ... 1.1
CCC(CC)Oc1ccc2c(C(=O)NC3CCCNC3)n[nH]c2n1 (stereo not drawn) [compound 725] ... 7.6

----------
Experiment: Liver microsome stability, human
Assay type: in vitro ADME
Settings: after 15 min
READOUT: human liver microsome (HLM, % parent remaining)

Cn1nc(C(=O)NC2CCN(CCN3CCCCC3)CC2)c2ccc(N3CCCCCC3)nc21 [EBP1047] ... 78
CCN1CCC(NC(=O)c2nn(C)c3nc(N4CCCCCC4)ccc23)CC1 [EBP1595] ... 73
Cn1nc(C(=O)NC2CCN(CCN3CCCC3)CC2)c2ccc(N3CCCCCC3)nc21 [EBP1597] ... 81
Cn1nc(C(=O)NC2CCN(CCN3CCCC3)CC2)c2ccc(N3CCCCCC3)nc21 [compound 1597] ... 81
Cn1nc(C(=O)NC2CCN(CC(F)F)CC2)c2ccc(N3CCCCCC3)nc21 [compound 1110] ... 8
CC1CCCCN1CCOCc1nn(C)c2nc(N3CCCCCC3)ccc12 (stereo not shown) [compound 1549] ... 16
Cn1nc(CCCN2CCCCC2CO)c2ccc(N3CCCCCCC3)nc21 (stereo not shown) [compound 1456] ... 28
CCN1CCC(NC(=O)c2nn(C)c3nc(N4CCCCCC4)ccc23)CC1 [compound 1595] ... 73
CC1CCCN1CCCc1nn(C)c2nc(N3CCCCCCC3)ccc12 (stereo not shown) [compound 1452] ... 32
Cn1nc(CCCN2CCCC2)c2ccc(N3CCCCCCC3)nc21 [compound 1171] ... 67
CC1CCC(C)N1CCOCc1nn(C)c2nc(N3CCCCCC3)ccc12 (stereo not shown) [compound 1540] ... 17
Cn1nc(C(=O)NC2CCNCC2)c2ccc(N3CCCCCC3)nc21.O=C(O)C(F)(F)F.O=C(O)C(F)(F)F [compound 697] ... 96
Cn1nc(C(=O)NC2CCN(CCN3CCCCC3)CC2)c2ccc(N3CCCCCC3)nc21 [compound 1047] ... 78

----------
Test: Caco-2 permeability testing
Format: in vitro ADME, human
Settings: human, Caco-2, pH 7.4, Caco-2, B-A, 90 min; read-out: Efflux (first figure of Efflux/permeability), Papp (B-A)
As shown below, each of these compounds has a reported Papp B→A at 90 min, 10 µM value.
READOUT: Papp B→A at 90 min, 10 µM (×10⁻⁶ cm/s)

Cn1nc(CCCN2CCCC2)c2ccc(N3CCCCCCC3)nc21 ... 11
CCC(CC)Oc1ccc2c(C(=O)NC3CCN(CC4CCCCC4)CC3)nn(C)c2n1 ... 1.6
Cn1nc(C(=O)NC2CCN(S(C)(=O)=O)CC2)c2ccc(N3CCCCCC3)nc21 ... 16
Cc1ccc(C(=O)Nc2nn(C)c3nc(N4CCCCCC4)ccc23)s1 ... 1.9
Cn1nc(C(=O)NC2CCN(CC3CCOCC3)CC2)c2ccc(N3CCCCCC3)nc21 ... 4.6
COc1ccc(CN2CCC(NC(=O)c3nn(C)c4nc(N5CCCCCC5)ccc34)CC2)cc1 ... 0.3
CC(C)N1CCC(NC(=O)c2nn(C)c3nc(N4CCCCCCC4)ccc23)CC1 ... 4.2
Cn1nc(C(=O)NC2CCN(CCN3CCCCC3)CC2)c2ccc(N3CCCCCC3)nc21 ... 7.6
Cn1nc(C(=O)NC2CCN(CCN3CCCC3)CC2)c2ccc(N3CCCCCC3)nc21 ... 6.5
CC(C)N1CCC(NC(=O)c2nn(C)c3nc(N4CCCCCC4)ccc23)CC1 ... 9
CCC(CC)Oc1ccc2c(C(=O)NC3CCNCC3)n[nH]c2n1 ... 41
Cn1nc(C(=O)NC2CCN(CCN3CCOCC3)CC2)c2ccc(NC3CCCCCCC3)nc21 ... 9.6
CCCC(C)CN1CCC(NC(=O)c2nn(C)c3nc(N4CCCCCCC4)ccc23)CC1 (stereo not shown) ... 0.2
CCN1CCC(NC(=O)c2nn(C)c3nc(N4CCCCCC4)ccc23)CC1 ... 14.4
CCN1CCC(NC(=O)c2nn(C)c3nc(N4CCCCCCC4)ccc23)CC1 ... 3.2
Clc1ccc(Cn2nc(COCCCN3CCCCC3)c3ccc(N4CCCCCC4)nc32)cc1 ... 0.52
Clc1ccc(Cn2nc(COCCN3CCCC3)c3ccc(N4CCCCCCC4)nc32)cc1 ... 7.3
O=C(NC1CCNCC1)c1nn(C(=O)C2CCCCC2)c2nc(N3CCCCCC3)ccc12.O=C(O)C(F)(F)F.O=C(O)C(F)(F)F.O=C(O)C(F)(F)F ... 3
Cn1nc(CCCN2CCCCC2CO)c2ccc(N3CCCCCCC3)nc21 (stereo not shown) ... 15
Cn1nc(-c2cnc(C(=O)NCc3cccs3)s2)c2ccc(N3CCCCCC3)nc21 ... 4
CN1CCC(NC(=O)c2nn(C)c3nc(N4CCCCCCC4)ccc23)CC1 ... 4.4
O=C(NC1CCN(CCN2CCCCC2)CC1)c1nn(CC(F)F)c2nc(N3CCCCCC3)ccc12 ... 3.5
Cn1nc(C(=O)NCc2cccs2)c2cc(N3CCCCC3)cnc21 ... 21
Cn1nc(C(=O)NC2CCN(CCN3CCCC3)CC2)c2ccc(NC3CCCCCCC3)nc21 ... 2.9
Cn1nc(C(=O)NC2CCN(CC(F)F)CC2)c2ccc(N3CCCCCC3)nc21 ... 10.1
CC1CCCCN1CCN1CCC(NC(=O)c2nn(C)c3nc(N4CCCCCC4)ccc23)CC1 (stereo not shown) ... 4
Cn1nc(C(=O)NC2CCN(CC3CCCCC3)CC2)c2ccc(N3CCCCCCC3)nc21 ... 0.6
Cn1nc(C(=O)NC2CCN(CCN3CCCCCC3)CC2)c2ccc(N3CCCCCCC3)nc21 ... 2.1

----------
Reported pEC50 values for a set of compounds
Test system: HCV genotype 1b
Experiment: HCV 1b replicon luciferase assay
Assay type: cell-based
Conditions: Hepatitis C virus, Huh-7, 48 h, Table 1; Huh7 HCV 1b replicon, luciferase reporter, 48 hours; read-out: 1b EC50
pEC50: −log10 of the molar value.
READOUT: pEC50

Cn1nc(C(=O)NC2CCN(CC3CCCCC3)CC2)c2ccc(N3CCCCCC3)nc21 [compound 987] ... 6.26
Cn1nc(C(=O)NC2CCNCC2)c2ccc(OCc3ccccc3-c3ccco3)nc21 [compound 1100] ... 5.85
CC1CC(NC(=O)c2nn(C)c3nc(N4CCCCCCC4)ccc23)CCN1CC1CCCCC1 (centres unmarked) [compound 1151] ... 5.85
Cn1nc(NC(=O)c2ccncc2)c2ccc(N3CCCCCC3)nc21 [compound 839] ... 5.60
O=C(NC1CCNCC1)c1nn(CC2CCCCC2)c2nc(N3CCCCCC3)ccc12 [compound 845] ... 5.70
Cn1nc(CCCN2CCC[C@@H]2CO)c2ccc(N3CCCCCCC3)nc21 [compound 1464] ... 5.70
Cn1nc(-c2nnc(C3CCCNC3)o2)c2ccc(N3CCCCCCC3)nc21 (centres unmarked) [compound 1271] ... 5.49
Cn1nc(C(=O)NC2CCN(CCN3CCOCC3)CC2)c2ccc(NC3CCCCCCC3)nc21 [compound 1471] ... 6.06
Cn1nc(C(=O)NCc2ccccc2)c2ccc(N3CCCCCC3)nc21 [compound 830] ... 5.14
CN1CCC(NC(=O)c2nn(C)c3nc(N4CCCCCCC4)ccc23)CC1 [compound 1306] ... 6.44
Cn1nc(-c2cnc(C(=O)NCC3CCCCC3)s2)c2ccc(N3CCCCCCC3)nc21 [compound 1251] ... 6.00
CN(c1ccc2c(C(=O)NC3CCNCC3)nn(C)c2n1)C1CCCCC1 [compound 892] ... 5.82
CC(C)CN(C)c1ccc2c(C(=O)NC3CCCNC3)nn(C)c2n1 (centres unmarked) [compound 686] ... 5.59
CC(c1cccc(C(F)(F)F)c1)N1CCC(NC(=O)c2nn(C)c3nc(N4CCCCCCC4)ccc23)CC1 (centres unmarked) [compound 1312] ... 5.57
Cn1nc(C(=O)N2CCNCC2)c2ccc(N3CCCCCC3)nc21 [compound 823] ... 5.12
Cn1nc(C(=O)NC2CCNCC2)c2ccc(NCC3CCCCC3)nc21 [compound 863] ... 5.89
